- measuredOn: T1, in vitro denatured human SOD1 (human, UniProt P00441 2-154)
- T1 construct: also called Denatured SOD1; unfolded SOD1
- methodDescription: direct ELISA, denatured human SOD1 coated at 20 µg/ml
As shown below, each of these binders has a reported EC50 value.
valueKind: EC50 (nM)

INSERT INTO results (binder, censoringoperator, reportedmeasurement) VALUES
  ('NI-204.7G5 (antibody, human IgG1, V domains shown) VH: EVQLVESGGGVVQAGGSLRLSCVASGLTFSSYGMHWVRQAPGKGLEWVAVISYDGRSKFYADSVKGRFTISRDNSKNTLYLQMNSLRAEDAAVYYCANARVRDACSGTRCDKFGFYMDVWGKGTTVTVSS VL: SYVLTQPPSVSVSPGQTARITCSGDALPKKYAYWYQQKSGQAPVLVIYEDIKRPSGIPERFSGSSSGTMATLTISGAQVEDEGDYYCYSADRSGNRWAFGGGTKLTVL', '=', 60),
  ('NI-204.25H3 (antibody, human IgG1, V domains shown) VH: QVQLQESGPGLVKPSETLSLTCTVSGGSISSSYWSWIRQPPGQGLEWIGYIYYSGNTYYNPSLKSRVTISIDTSKTQFSLNLTSVSAADTAVYYCARDGIPGAIGMDVWGQGTTVTVSS VL: QSVLTQPPSVSAAPGQKVNISCSGSSSNIGNNYVSWYQRLPGTAPKLLIYDNNKRPSGIPDRFSGSKSGTSATLGITGLQTGDGADYYCATWDKSLIAVVFGGGTKLTVL', '=', 4),
  ('NI-204.10A8 (antibody, human IgG1, V domains shown) VH: EVQLVESGAEVKEPGSSVRVSCKTSGGSFNRHVITWVRQAPGQGLEWMGEIIPFFGTPKYAPKFQGRVTIIADASTSTFFLDVKSLTSEDTALYFCWIVVVSVVQRREDFWGQGILVTVSS VL: EIVLTQSPSSLSASVGDTVTITCRSSQNISNYLSWFQHKPGKAPRILVYAASTLQTGVPSRFSGRGSGTIFTLSITSLQSEDYATYYCQQNDKIPRTFGQGTKVEIK', '>', 100),
  ('NI-204.7B3 (antibody, human IgG1, V domains shown) VH: EVQLVQSGGDIVQSGGSLRLSCAASGFVFSSNWMHWVRQRPGKGLEWISLINVDGRTTKYADSVKGRFTISRDNAKKTVYLQMDSLRAEDTAVYYCVKVEGLNWGPGTLVTVSS VL: LPVLTQPPSVSVSPGQTARITCSGDELSKQYAYWYQKKSGQAPVMVVNEDTKRPPGIPERFSGSSSGTTSTLTISGVQAEDEADYYCQSADITGSWVFGGGTKLTVL', '=', 50);

Recorded values, source patent US20140301945A1.
